Target Under Test: human IL-23R (Homo sapiens, UniProt Q5VWK5)
*1 amine or outer side, *2 acyl side, *3 side chain or, on linkers, in order; H or OH if unused. Where a SMILES comes first, the peptide text is derived from it. Bridges are numbered along the chain shown (N, C = ends). [ ]: non-standard residue; d: D form. X8 = O=C(CC[C@@H](N[*:2])C(=O)[*:3])[*:1]; 2Nal = N[C@@H](Cc1ccc2ccccc2c1)C(=O)O; AEF = NCCOc1ccc(C[C@H](N)C(=O)O)cc1; 3Pal = N[C@@H](Cc1cccnc1)C(=O)O; β3hE = N[C@@H](CCC(=O)O)CC(=O)O; αMeL = CC(C)C[C@](C)(N)C(=O)O; CH2COCH2 = O=C(C[*:1])C[*:2]; 3Amb = NCc1cccc(C(=O)O)c1; Dab = NCC[C@H](N)C(=O)O
Endpoint Name: log10(IC50) (log10 of the value in nM)

>  <Molecule>
CC(C)C[C@]1(C)NC(=O)[C@H](Cc2ccc3ccccc3c2)NC(=O)[C@H](Cc2ccc(OCCN)cc2)NC(=O)[C@@H]2CCC(=O)N[C@@H](CCCCCNC(=O)CC[C@@H](C(=O)N[C@@H](CCN)C(=O)N[C@@H](Cc3cccnc3)C(N)=O)NC1=O)C(=O)N[C@@H]([C@@H](C)O)C(=O)N[C@@H](C(C)C)C(=O)N[C@@H](Cc1c[nH]c3ccccc13)C(=O)N[C@@H](CCC(N)=O)C(=O)N2

>  <log10(IC50)>
-1.54

$$$$
>  <Molecule>
CC(C)C[C@@H]1NC(=O)[C@H](Cc2ccc3ccccc3c2)NC(=O)[C@H](Cc2c[nH]c3ccccc23)NC(=O)[C@@H]2CSCC(=O)CSC[C@H](NC(=O)[C@H](CO)NC(=O)c3cccc(c3)CNC(=O)CC[C@@H](C(=O)N[C@@H](CCCNC(=N)N)C(N)=O)NC1=O)C(=O)N[C@@H](Cc1c[nH]c3ccccc13)C(=O)N[C@@H](CCC(N)=O)C(=O)N2 [Ref 37, reference compound] ([3Amb]SCWQCW[2Nal]LER-NH2; linker 3-6 via CH2COCH2; lactam N-10)

>  <log10(IC50)>
1.08

$$$$
>  <Molecule>
CNC(=O)[C@H](Cc1cccnc1)NC(=O)[C@H](CCN)NC(=O)[C@@H]1CCCCNC(=O)[C@H]2CCC(=O)N[C@@H](Cc3c[nH]c4ccccc34)C(=O)N[C@@H](CCC(N)=O)C(=O)N[C@@H](CCC(=O)N2)C(=O)N[C@@H](Cc2ccc(OCCN)cc2)C(=O)N[C@@H](Cc2ccc3ccccc3c2)C(=O)N[C@@](C)(CC(C)C)C(=O)N1 [Compound 108] (WQE[AEF][2Nal][αMeL]K[Dab][3Pal]-NHMe; linker N-3-7 via X8)

>  <log10(IC50)>
1.20

$$$$
>  <Molecule>
CC(C)C[C@]1(C)NC(=O)[C@H](Cc2c[nH]c3ccccc23)NC(=O)[C@H](Cc2c[nH]c3ccccc23)NC(=O)[C@@H]2CSCC(=O)CSC[C@H](NC(=O)[C@H]([C@@H](C)O)NC(=O)[C@@H](NC(=O)CN)CSCC(=O)CSC[C@@H](C(=O)N[C@@H](CO)C(N)=O)NC1=O)C(=O)N[C@@H](Cc1c[nH]c3ccccc13)C(=O)N[C@@H](CCC(=O)O)C(=O)N2 (single isomer, unassigned) [I5 (isomer 3), reference compound]

>  <log10(IC50)>
1.95

$$$$
>  <Molecule>
CC[C@H](C)[C@@H]1NC(=O)[C@@H]2CCCCNC(=O)CC[C@@H](CC(=O)N[C@@H](Cc3cccnc3)C(=O)NC)NC(=O)[C@](C)(CC(C)C)NC(=O)[C@H](Cc3ccc4ccccc4c3)NC(=O)[C@H](Cc3ccc(OCCN)cc3)NC(=O)[C@H](CCC(=O)N2)NC(=O)[C@H](CCC(N)=O)NC(=O)[C@H](Cc2c[nH]c3ccccc23)NC(=O)[C@H](C(C)C)NC1=O [Compound 61] (KIVWQE[AEF][2Nal][αMeL][β3hE][3Pal]-NHMe; lactam 1-10, N-6)

>  <log10(IC50)>
1.04

$$$$

* * *

Target Under Test: human IL-23R (Homo sapiens)
Sequence (Q5VWK5 22-629): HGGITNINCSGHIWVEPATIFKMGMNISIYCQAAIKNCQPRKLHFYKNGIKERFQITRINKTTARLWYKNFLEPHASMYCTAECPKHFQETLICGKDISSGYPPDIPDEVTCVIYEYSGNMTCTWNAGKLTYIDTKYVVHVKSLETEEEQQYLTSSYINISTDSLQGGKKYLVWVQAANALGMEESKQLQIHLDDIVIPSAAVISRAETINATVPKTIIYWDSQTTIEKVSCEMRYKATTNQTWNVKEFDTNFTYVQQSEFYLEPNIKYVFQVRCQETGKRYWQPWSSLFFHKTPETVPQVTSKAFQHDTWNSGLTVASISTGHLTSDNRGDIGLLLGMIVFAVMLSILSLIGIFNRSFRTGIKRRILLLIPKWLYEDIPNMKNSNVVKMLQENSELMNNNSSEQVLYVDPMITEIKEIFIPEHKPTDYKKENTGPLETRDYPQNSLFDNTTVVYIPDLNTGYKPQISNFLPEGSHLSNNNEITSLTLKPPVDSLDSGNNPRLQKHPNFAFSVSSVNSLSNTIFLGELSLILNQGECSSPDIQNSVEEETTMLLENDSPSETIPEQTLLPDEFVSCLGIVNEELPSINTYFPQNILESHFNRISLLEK
pIC50: −log10 of the molar value.

>  <Mol>
CC[C@H](C)[C@H]1CC(=O)N[C@@H](Cc2c[nH]c3ccccc23)C(=O)N[C@@H](CCC(N)=O)C(=O)N[C@H]2CCC(=O)N[C@@H](CCCCNC(=O)CC[C@@H](C(=O)N[C@@H](CCN)C(=O)N[C@@H](Cc3cccnc3)C(=O)NC)NC(=O)[C@](C)(CC(C)C)NC(=O)[C@H](Cc3ccc4ccccc4c3)NC(=O)[C@H](Cc3ccc(OCCN)cc3)NC2=O)C(=O)N1

>  <pIC50>
10.52

$$$$
>  <Mol>
CNC(=O)[C@H](Cc1cccnc1)NC(=O)[C@H](CCN)NC(=O)[C@@H]1CCC(=O)NC[C@@H]2NC(=O)CC[C@H](NC(=O)[C@H](CCC(N)=O)NC(=O)[C@H](Cc3c[nH]c4ccccc34)NC2=O)C(=O)N[C@@H](Cc2ccc(OCCN)cc2)C(=O)N[C@@H](Cc2ccc3ccccc3c2)C(=O)N[C@@](C)(CC(C)C)C(=O)N1

>  <pIC50>
7.77

$$$$
>  <Mol>
CNC(=O)[C@H](Cc1cccnc1)NC(=O)[C@H](CCN)NC(=O)[C@@H]1CCC(=O)N[C@H]2CCCCNC(=O)CC[C@H](NC(=O)[C@H](CCC(N)=O)NC(=O)[C@H](Cc3c[nH]c4ccccc34)NC(=O)CNC2=O)C(=O)N[C@@H](Cc2ccc(OCCN)cc2)C(=O)N[C@@H](Cc2ccc3ccccc3c2)C(=O)N[C@@](C)(CC(C)C)C(=O)N1

>  <pIC50>
9.30

$$$$

* * *

Target Under Test: IL-23 mediated signalling (Homo sapiens, UniProt Q5VWK5)
Assay Info: Functional inhibition of IL-23 mediated STAT3 signalling (phospho-STAT3 MSD) in DB cells
Type: cell-based
Recorded Conditions: Table 3-2; maximal inhibitory response, DB cells, hIL-23 at EC80; read-out: hIL-23 (pSTAT3) antagonist % inhibition
*1 amine or outer side, *2 acyl side, *3 side chain or, on linkers, in order; H or OH if unused. Where a SMILES comes first, the peptide text is derived from it. Bridges are numbered along the chain shown (N, C = ends). [ ]: non-standard residue; d: D form. hAad = O=C([C@H](CCCCC(=O)[*:3])N[*:1])[*:2]; 2Nal = N[C@@H](Cc1ccc2ccccc2c1)C(=O)O; AEF = NCCOc1ccc(C[C@H](N)C(=O)O)cc1; X1 = O=C(Cc1ccc(CN[*:1])cc1)[*:2]; 3Pal = N[C@@H](Cc1cccnc1)C(=O)O; αMeL = CC(C)C[C@](C)(N)C(=O)O; CH2COCH2 = O=C(C[*:1])C[*:2]; 3Amb = NCc1cccc(C(=O)O)c1; dDab = NCC[C@@H](N)C(=O)O; Dab = NCC[C@H](N)C(=O)O
Endpoint Name: Emax (%)

>  <Compound>
CC(C)C[C@]1(C)NC(=O)[C@H](Cc2ccc3ccccc3c2)NC(=O)[C@H](Cc2ccc(OCCN)cc2)NC(=O)[C@@H]2CSCC(=O)CSC[C@H](NC(=O)[C@H](CO)NC(=O)Cc3ccc(cc3)CNC(=O)CC[C@@H](C(=O)N[C@@H](CCN)C(=O)N[C@@H](Cc3cccnc3)C(N)=O)NC1=O)C(=O)N[C@@H](Cc1c[nH]c3ccccc13)C(=O)N[C@@H](CCC(N)=O)C(=O)N2 [Ref 120, reference compound] ([X1]SCWQC[AEF][2Nal][αMeL]E[Dab][3Pal]-NH2; linker 3-6 via CH2COCH2; lactam N-10)

>  <Endpoint Name>
Emax

>  <Reported Result>
101

$$$$
>  <Compound>
CSCC[C@H](NC(=O)[C@@H]1CSCC(=O)CSC[C@H](NC(=O)[C@@H](N)CCC(=O)O)C(=O)N[C@@H](Cc2c[nH]c3ccccc23)C(=O)N[C@@H](CC(C)C)C(=O)N[C@H]2CSCC(=O)CSC[C@H](NC(=O)[C@H](CC(N)=O)NC(=O)[C@H](CCCNC(=N)N)NC(=O)[C@H](Cc3ccc(O)cc3)NC(=O)[C@H](Cc3ccc(O)cc3)NC2=O)C(=O)N[C@@H](CC(N)=O)C(=O)N1)C(N)=O (single isomer, unassigned) [I4 (isomer 3), H-EC(4a)WLC(5a)YYRNC(5a)NC(4a)M-[NH2], reference compound]

>  <Endpoint Name>
Emax

>  <Reported Result>
23

$$$$
>  <Compound>
CC(C)C[C@]1(C)NC(=O)[C@H](Cc2ccc3ccccc3c2)NC(=O)[C@H](Cc2ccc(OCCN)cc2)NC(=O)[C@@H]2CCC(=O)N[C@H](CCNC(=O)CCCC[C@@H](C(=O)N[C@@H](CCN)C(=O)N[C@@H](Cc3cccnc3)C(N)=O)NC1=O)C(=O)N[C@@H]([C@@H](C)O)C(=O)N[C@@H](C(C)C)C(=O)N[C@@H](Cc1c[nH]c3ccccc13)C(=O)N[C@@H](CCC(N)=O)C(=O)N2 [Compound 7] ([dDab]TVWQE[AEF][2Nal][αMeL][hAad][Dab][3Pal]-NH2; lactam 1-10, N-6)

>  <Endpoint Name>
Emax

>  <Reported Result>
99

$$$$
>  <Compound>
CC(C)C[C@]1(C)NC(=O)[C@H](Cc2ccc3ccccc3c2)NC(=O)[C@H](Cc2ccc(OCCN)cc2)NC(=O)[C@@H]2CSCC(=O)CSC[C@H](NC(=O)[C@H](CO)NC(=O)c3cccc(c3)CNC(=O)CC[C@@H](C(=O)N[C@H](CCCNC(=N)N)C(N)=O)NC1=O)C(=O)N[C@@H](Cc1c[nH]c3ccccc13)C(=O)N[C@@H](CCC(N)=O)C(=O)N2 [Ref 41, reference compound] ([3Amb]SCWQC[AEF][2Nal][αMeL]E[dR]-NH2; linker 3-6 via CH2COCH2; lactam N-10)

>  <Endpoint Name>
Emax

>  <Reported Result>
99

$$$$
>  <Compound>
CC[C@H](C)[C@@H]1NC(=O)[C@@H]2CCCCNC(=O)CC[C@@H](C(=O)N[C@@H](CCN)C(=O)N[C@@H](Cc3cccnc3)C(N)=O)NC(=O)C(C)(C)NC(=O)[C@H](Cc3ccc4ccccc4c3)NC(=O)[C@H](Cc3ccc(C)cc3)NC(=O)[C@H](CCC(=O)N2)NC(=O)[C@H](CCC(N)=O)NC(=O)[C@H](Cc2c[nH]c3ccccc23)NC(=O)[C@H](C(C)C)NC1=O

>  <Endpoint Name>
Emax

>  <Reported Result>
99

$$$$
>  <Compound>
CNC(=O)[C@H](Cc1cccnc1)NC(=O)[C@H](CCN)NC(=O)[C@@H]1CCC(=O)NCCCC[C@@H]2NC(=O)CC[C@H](NC(=O)[C@H](CCC(N)=O)NC(=O)[C@H](Cc3c[nH]c4ccccc34)NC(=O)CNC2=O)C(=O)N[C@@H](Cc2ccc(OCCN)cc2)C(=O)N[C@@H](Cc2ccc3ccccc3c2)C(=O)N[C@@](C)(CC(C)C)C(=O)N1

>  <Endpoint Name>
Emax

>  <Reported Result>
100

$$$$
>  <Compound>
CC(C)C[C@]1(C)NC(=O)[C@H](Cc2ccc3ccccc3c2)NC(=O)[C@H](Cc2ccc(OCCN)cc2)NC(=O)[C@@H]2CSCC(=O)CSC[C@H](NC(=O)[C@H](CO)NC(=O)Cc3ccc(cc3)CNC(=O)CC[C@@H](C(=O)N[C@H](CCCNC(=N)N)C(N)=O)NC1=O)C(=O)N[C@@H](Cc1c[nH]c3ccccc13)C(=O)N[C@@H](CCC(N)=O)C(=O)N2 [Ref 80, reference compound] ([X1]SCWQC[AEF][2Nal][αMeL]E[dR]-NH2; linker 3-6 via CH2COCH2; lactam N-10)

>  <Endpoint Name>
Emax

>  <Reported Result>
97

$$$$
>  <Compound>
CC(C)C[C@@H]1NC(=O)[C@H](Cc2ccc3ccccc3c2)NC(=O)[C@H](Cc2c[nH]c3ccccc23)NC(=O)[C@@H]2CSCC(=O)CSC[C@H](NC(=O)[C@H](CO)NC(=O)c3cccc(c3)CNC(=O)CC[C@@H](C(=O)N[C@@H](CCCNC(=N)N)C(N)=O)NC1=O)C(=O)N[C@@H](Cc1c[nH]c3ccccc13)C(=O)N[C@@H](CCC(N)=O)C(=O)N2 [Ref 37, reference compound] ([3Amb]SCWQCW[2Nal]LER-NH2; linker 3-6 via CH2COCH2; lactam N-10)

>  <Endpoint Name>
Emax

>  <Reported Result>
89

$$$$
>  <Compound>
CNC(=O)[C@H](Cc1cccnc1)NC(=O)[C@H](CCN)NC(=O)[C@@H]1CCC(=O)NCCCC[C@@H]2NC(=O)CC[C@H](NC(=O)[C@H](CCC(N)=O)NC(=O)[C@H](Cc3c[nH]c4ccccc34)NC(=O)[C@H]([C@@H](C)O)NC2=O)C(=O)N[C@@H](Cc2ccc(OCCN)cc2)C(=O)N[C@@H](Cc2ccc3ccccc3c2)C(=O)N[C@@](C)(CC(C)C)C(=O)N1 [Compound 36] (KTWQE[AEF][2Nal][αMeL]E[Dab][3Pal]-NHMe; lactam 1-9, N-5)

>  <Endpoint Name>
Emax

>  <Reported Result>
97

$$$$
